Measured EC50 accompanies every entry in the list below.
# TEST TARGET: Human GPR35 (Homo sapiens, UniProt Q9HC97, S294R)
# Sequence (Q9HC97 whole entry S294R): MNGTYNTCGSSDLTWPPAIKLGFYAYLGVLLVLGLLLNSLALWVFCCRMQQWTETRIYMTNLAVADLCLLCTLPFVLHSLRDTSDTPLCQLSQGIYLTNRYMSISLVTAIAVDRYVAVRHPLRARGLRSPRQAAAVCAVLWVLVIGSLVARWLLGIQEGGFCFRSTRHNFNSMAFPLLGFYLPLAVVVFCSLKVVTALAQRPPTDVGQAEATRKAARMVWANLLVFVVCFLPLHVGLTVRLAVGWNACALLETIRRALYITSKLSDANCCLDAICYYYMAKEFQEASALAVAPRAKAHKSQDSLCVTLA
# ASSAY REMARKS: Alternative Beta-Arrestin Assay (JumpIn 294R Tango U2OS cells, LiveBLAzer-FRET B/G)
# CONDITION SET: Human GPR35 expressing JumpIn 294R Tango U2OS cells, 5 hours treatment

Give the reported EC50 for CCOc1cc(-c2cccc(CC(C)C(=O)O)c2)ccc1-c1nc2[nH]nnc2c(=O)[nH]1 (single isomer, unassigned) [Compound 311] (system: Human GPR35 (Homo sapiens, UniProt Q9HC97, S294R)).
≤ 10 µM

Human GPR35 (Homo sapiens, UniProt Q9HC97, S294R) / EC50 / CN(C)CCCOc1cc(-c2ccc(C(=O)O)cc2)ccc1-c1nc2[nH]nnc2c(=O)[nH]1 [Compound 229] : value?
10 to 50 µM

Provide the documented EC50 with Human GPR35 (Homo sapiens, UniProt Q9HC97, S294R) as the system for CCOc1cc(-c2ccccc2C(=O)O)ccc1-c1nc2[nH]nnc2c(=O)[nH]1 [Compound 109]
10 to 50 µM

State its EC50 on Human GPR35 (Homo sapiens, UniProt Q9HC97, S294R): CCOc1cc(N2CC[C@H](C(=O)O)C2)ccc1-c1nc2[nH]nnc2c(=O)[nH]1 [Compound 166]
≤ 10 µM

Return EC50 measured with Human GPR35 (Homo sapiens, UniProt Q9HC97, S294R) given this compound: O=C(O)CNc1cccc(-c2ccc(-c3nc4[nH]nnc4c(=O)[nH]3)c(OCCN3CCCC3)c2)c1 [Compound 230]
10 to 50 µM

What value of EC50 on Human GPR35 (Homo sapiens, UniProt Q9HC97, S294R) does CCOc1cc(-c2cccc(CC(C)(C)C(=O)O)c2)ccc1-c1nc2[nH]nnc2c(=O)[nH]1 [Compound 243] have?
≤ 10 µM

Lab request: please report EC50 under test system Human GPR35 (Homo sapiens, UniProt Q9HC97, S294R) for O=C(O)c1ccc(O)c(-c2ccc(-c3nc4[nH]nnc4c(=O)[nH]3)c(OC3CCCC3)c2)c1 [Compound 210]
≤ 10 µM
